- Tested on: 3797 S. aureus (GISA)
- measurement description: MIC, broth microdilution in Meuller-Hinton broth (NCCLS)
- Assay type: cell-based, Staphylococus aureus
- cond: glycopeptides-intermediate clinical isolate

| compound | MIC 3797 S. aureus (GISA) |
| --- | --- |
| CNC(CC(C)C)C(=O)NC1C(=O)NC(CC(N)=O)C(=O)NC2C(=O)NC3C(=O)NC(C(=O)NC(C(=O)O)c4cc(O)cc(O)c4-c4cc3ccc4O)C(OC3CC(C)(N)C(O)C(C)O3)c3ccc(cc3)Oc3cc2cc(c3OC2OC(CO)C(O)C(O)C2OC2CC(C)(NC(=O)[C@@H](N)Cc3ccccc3)C(O)C(C)O2)Oc2ccc(cc2Cl)C1O (stereo partly drawn) | >32 µg/mL |
| CCCCCCCCOc1ccc(CNC(CCCN)C(=O)NC2(C)CC(OC3C(Oc4c5cc6cc4Oc4ccc(cc4Cl)C(O)C4NC(=O)C(NC(=O)C6NC(=O)C(CC(N)=O)NC(=O)C(NC(=O)C(CC(C)C)NC)C(O)c6ccc(c(Cl)c6)O5)c5ccc(O)c(c5)-c5c(O)cc(O)cc5C(C(=O)O)NC4=O)OC(CO)C(O)C3O)OC(C)C2O)cc1 (stereo not drawn) | 2 µg/mL |
| CCCCCCCCOc1ccc(CNCC(=O)NC2(C)CC(OC3C(Oc4c5cc6cc4Oc4ccc(cc4Cl)C(O)C(NC(=O)C(CC(C)C)NC)C(=O)NC(CC(N)=O)C(=O)NC6C(=O)NC4C(=O)NC(C(=O)NC(C(=O)NC6C7CC8CC(C7)CC6C8)c6cc(O)cc(O)c6-c6cc4ccc6O)C(OC4CC(C)(N)C(O)C(C)O4)c4ccc(cc4)O5)OC(CO)C(O)C3O)OC(C)C2O)cc1 (stereo not drawn) | >32 µg/mL |

----------
- Test system: 559 E. faecalis (GSE)
- measurement description: MIC, broth microdilution in Meuller-Hinton broth (NCCLS)
- Type: cell-based, Enterococcus faecalis
- cond: glycopeptide-sensitive clinical isolate

| compound | assay target | MIC 559 E. faecalis (GSE) / µg/mL |
| --- | --- | --- |
| CNC(CC(C)C)C(=O)NC1C(=O)NC(CC(N)=O)C(=O)NC2C(=O)NC3C(=O)NC(C(=O)NC(C(=O)O)c4cc(O)cc(O)c4-c4cc3ccc4O)C(OC3CC(C)(N)C(O)C(C)O3)c3ccc(cc3)Oc3cc2cc(c3OC2OC(CO)C(O)C(O)C2OC2CC(C)(NC(=O)C(N)CCCCN)C(O)C(C)O2)Oc2ccc(cc2Cl)C1O (centres unmarked) | 559 E. faecalis (GSE) | 0.25 |
| CCCCCCCCOc1ccc(CNC(CCCN)C(=O)NC2(C)CC(OC3C(Oc4c5cc6cc4Oc4ccc(cc4Cl)C(O)C4NC(=O)C(NC(=O)C6NC(=O)C(CC(N)=O)NC(=O)C(NC(=O)C(CC(C)C)NC)C(O)c6ccc(c(Cl)c6)O5)c5ccc(O)c(c5)-c5c(O)cc(O)cc5C(C(=O)O)NC4=O)OC(CO)C(O)C3O)OC(C)C2O)cc1 (centres unmarked) | 559 E. faecalis (GSE) | 1 |

----------
- Test system: 559 E. faecalis (GSE)
- measurement description: MIC, broth microdilution in Meuller-Hinton broth (NCCLS)
- Type: cell-based, Enterococcus faecalis
- cond: glycopeptide-sensitive clinical isolate
Measured MIC 559 E. faecalis (GSE) of individual entries
attribute measured: MIC 559 E. faecalis (GSE)

| molecule | attribute measured | reported |
| --- | --- | --- |
| CNC(CC(C)C)C(=O)NC1C(=O)NC(CC(N)=O)C(=O)NC2C(=O)NC3C(=O)NC(C(=O)NC(C(=O)O)c4cc(O)cc(O)c4-c4cc3ccc4O)C(OC3CC(C)(N)C(O)C(C)O3)c3ccc(cc3)Oc3cc2cc(c3OC2OC(CO)C(O)C(O)C2OC2CC(C)(NC(=O)CNCc3c[nH]c4ccc(OCc5ccccc5)cc34)C(O)C(C)O2)Oc2ccc(cc2Cl)C1O (stereo not drawn) [Compound 224] | MIC 559 E. faecalis (GSE) | 2 µg/mL |
| CNC(CC(C)C)C(=O)NC1C(=O)NC(CC(N)=O)C(=O)NC2C(=O)NC3C(=O)NC(C(=O)NC(C(=O)NC(C)C45CC6CC(CC(C6)C4)C5)c4cc(O)cc(O)c4-c4cc3ccc4O)C(OC3CC(C)(N)C(O)C(C)O3)c3ccc(cc3)Oc3cc2cc(c3OC2OC(CO)C(O)C(O)C2OC2CC(C)(N)C(O)C(C)O2)Oc2ccc(cc2Cl)C1O (stereo not drawn) [Compound 262] | MIC 559 E. faecalis (GSE) | 1 µg/mL |
| CCCCCCCCOc1ccc(CNCC(=O)NC2(C)CC(OC3C(Oc4c5cc6cc4Oc4ccc(cc4Cl)C(O)C4NC(=O)C(NC(=O)C6NC(=O)C(CC(N)=O)NC(=O)C(NC(=O)C(CC(C)C)NC)C(O)c6ccc(c(Cl)c6)O5)c5ccc(O)c(c5)-c5c(O)cc(O)cc5C(C(=O)NCc5ccc(F)cc5)NC4=O)OC(CO)C(O)C3O)OC(C)C2O)cc1 (stereo not drawn) [Compound 277] | MIC 559 E. faecalis (GSE) | 4 µg/mL |

This collection of values is drawn from patent US7632918B2.
